# Tested on: Mycobacterium tuberculosis
# assay-protocol: Inhibition of Bio-A overexpressed in Mycobacterium tuberculosis in presence of anhydrotetracycline after 9 days
# MIC50 per entry

{"columns": ["chemical-smiles", "MIC50"],
 "data": [
  ["CC(=O)c1ccc(N2CCN(C(=O)c3ccc4c(c3)OCCCO4)CC2)cc1", "> 50 µM"],
  ["C/C(=N\\O)c1ccc(N2CCN(C(=O)c3cccc(Cl)c3)CC2)cc1", "> 50 µM"],
  ["CC(=O)c1ccc(N2CCN(C(=O)c3cncc(Cl)c3)CC2)cc1", "> 50 µM"],
  ["O=C1OCc2cc(N3CCN(C(=O)c4cccc(Cl)c4)CC3)ccc21", "> 50 µM"],
  ["O=C1CCc2cc(N3CCN(C(=O)c4ccc5c(c4)OCO5)CC3)ccc21", "2.8 µM"],
  ["O=C1CCc2cc(N3CCN(C(=O)c4cccc(Cl)c4)CC3)ccc21", "8.1 µM"],
  ["CC(=O)c1ccc(N2CCN(C(=O)c3cccc(Cl)c3)CC2)cc1", "7.5 µM"],
  ["CC(=O)c1ccc(N2CCN(C(=O)c3cscn3)CC2)cc1", "> 50 µM"],
  ["CCCC(=O)N1CCN(c2ccc(C(C)=O)cc2)CC1", "> 50 µM"],
  ["CC(=O)c1ccc(N2CCN(C(=O)CC(C)C)CC2)cc1", "> 50 µM"],
  ["O=C(c1cccc(Cl)c1)N1CCN(c2ccc(-c3ccno3)cc2)CC1", "38.9 µM"],
  ["COC(=O)c1ccc(N2CCN(C(=O)c3cccc(Cl)c3)CC2)cc1", "> 50 µM"]
]}

* * *

# System: Mycobacterium tuberculosis
# assay-protocol: Inhibition of Bio-A overexpressed in Mycobacterium tuberculosis in presence of anhydrotetracycline after 9 days

{"columns": ["chemical-smiles", "MIC50"],
 "data": [
  ["CC(=O)c1ccc(N2CCN(C(=O)c3cc(Cl)cc(Cl)c3)CC2)cc1", "> 50 µM"],
  ["O=C(c1cccc(Cl)c1)N1CCN(c2ccc3c(c2)COC3)CC1", "> 50 µM"],
  ["CC(=O)c1ccc(N2CCN(C(=O)c3ccc4c(c3)OCCO4)CC2)cc1", "> 50 µM"]
]}
